Sourced from patent EP2951180B1

biological target: HDM2 (Homo sapiens, UniProt Q00987); construct: Thioredoxin (N); made in house; host or cells: E. coli strain BL21(DE3)Rosetta; assay: HDM2 FRET assay (inhibition of binding of FITC labeled p53-pocket peptide to HDM2); details: Table 11; read-out: FRET IC50
Sequence (Q00987 17-125): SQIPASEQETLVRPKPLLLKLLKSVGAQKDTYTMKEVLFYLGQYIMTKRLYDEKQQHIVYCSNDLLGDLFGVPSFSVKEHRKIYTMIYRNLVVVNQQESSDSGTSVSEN
The reader will find reported IC50 values listed item by item below.
Quick reminder: number only, in nM, skip the unit.

CC(C)C[C@@H]1CCCCN1c1nc2nc(-c3noc(=O)[nH]3)nc(N[C@H](C)C3CCC3)c2n1C[C@H]1CC[C@H](C)CC1 :: 3.07
C[C@@H](Nc1nc(-c2noc(=O)[nH]2)nc2nc(N(C)Cc3noc(C4CC4)n3)n(C[C@H]3CC[C@H](C)CC3)c12)C1CCC1 :: 9.58

Could you now consider this next compound?
The reported IC50 of the compound "COCCN(C)c1nc2nc(-c3noc(=O)[nH]3)nc(N[C@H](C)C3CCC3)c2n1C[C@H]1CC[C@H](C)CC1" was 21
